Values from paper PMC9667936

Target: 14-3-3γ (Homo sapiens, UniProt P61981)
Construct: made in house; host or cells: E. coli NiCo21 (DE3)
Sequence (P61981 1-247): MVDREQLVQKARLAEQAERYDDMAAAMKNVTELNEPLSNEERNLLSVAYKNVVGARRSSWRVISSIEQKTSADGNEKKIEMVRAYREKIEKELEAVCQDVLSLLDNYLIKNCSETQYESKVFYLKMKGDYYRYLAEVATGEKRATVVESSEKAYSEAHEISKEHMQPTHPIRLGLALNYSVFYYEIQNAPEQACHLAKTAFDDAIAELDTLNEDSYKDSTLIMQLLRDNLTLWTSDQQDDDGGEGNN
Assay: Isothermal titration calorimetry (ITC) of 14-3-3 binding to peptide
Settings: Table S6 (unit given in Fig. 4 legend); ITC, 25 °C; average of two runs
Where a SMILES comes first, the peptide text is derived from it. [ ]: non-standard residue; d: D form. ξ: configuration not given here. Phe(4-NO2) = N[C@@H](Cc1ccc([N+](=O)[O-])cc1)C(=O)O; ξAla(4-thiazolyl) = NC(Cc1cscn1)C(=O)O; pS = N[C@@H](COP(=O)(O)O)C(=O)O; β3hS = N[C@@H](CO)CC(=O)O; Nva = CCC[C@H](N)C(=O)O; βAla = NCCC(=O)O

- Compound: "CCC[C@H](NC(=O)[C@H](N)CCCCN)C(=O)N[C@@H](Cc1ccc([N+](=O)[O-])cc1)C(=O)NC(Cc1cscn1)C(=O)N[C@@H](COP(=O)(O)O)C(=O)N[C@@H](Cc1ccc([N+](=O)[O-])cc1)C(=O)N[C@@H](CO)CC(=O)NCCC(=O)N[C@@H](Cc1ccccc1)C(=O)N[C@@H](CCCCN)C(N)=O (stereo partly drawn) [5b] (H-[dK][Nva][Phe(4-NO2)][ξAla(4-thiazolyl)][pS][Phe(4-NO2)][β3hS][βAla]FK-NH2; N-terminus and C-terminus assumed)"
  ΔH: "-4,72 kcal mol^-1"
- Compound: "CCC[C@H](NC(=O)[C@H](N)CCCCN)C(=O)N[C@@H](Cc1ccc([N+](=O)[O-])cc1)C(=O)NC(Cc1cscn1)C(=O)N[C@@H](COP(=O)(O)O)C(=O)N[C@@H](Cc1ccc([N+](=O)[O-])cc1)C(=O)N[C@@H](CO)CC(=O)NCCC(=O)N[C@@H](C)C(=O)N[C@@H](CCCCN)C(N)=O (stereo partly drawn) [5c] (H-[dK][Nva][Phe(4-NO2)][ξAla(4-thiazolyl)][pS][Phe(4-NO2)][β3hS][βAla]AK-NH2; N-terminus and C-terminus assumed)"
  ΔH: "-2,89 kcal mol^-1"
- Compound: "CCC[C@H](NC(=O)[C@H](N)CCCCN)C(=O)N[C@@H](Cc1ccc([N+](=O)[O-])cc1)C(=O)NC(Cc1cscn1)C(=O)N[C@@H](COP(=O)(O)O)C(=O)N[C@@H](Cc1ccc([N+](=O)[O-])cc1)C(=O)N[C@@H](CO)CC(=O)NCCC(=O)N[C@@H](Cc1ccc(O)cc1)C(=O)N[C@@H](CCCCN)C(N)=O (stereo partly drawn) [5a] (H-[dK][Nva][Phe(4-NO2)][ξAla(4-thiazolyl)][pS][Phe(4-NO2)][β3hS][βAla]YK-NH2; N-terminus and C-terminus assumed)"
  ΔH: "-5,21 kcal mol^-1"
